- target-entity: hGLP-1R (Homo sapiens, UniProt P43220)
- Sequence (P43220 24-463): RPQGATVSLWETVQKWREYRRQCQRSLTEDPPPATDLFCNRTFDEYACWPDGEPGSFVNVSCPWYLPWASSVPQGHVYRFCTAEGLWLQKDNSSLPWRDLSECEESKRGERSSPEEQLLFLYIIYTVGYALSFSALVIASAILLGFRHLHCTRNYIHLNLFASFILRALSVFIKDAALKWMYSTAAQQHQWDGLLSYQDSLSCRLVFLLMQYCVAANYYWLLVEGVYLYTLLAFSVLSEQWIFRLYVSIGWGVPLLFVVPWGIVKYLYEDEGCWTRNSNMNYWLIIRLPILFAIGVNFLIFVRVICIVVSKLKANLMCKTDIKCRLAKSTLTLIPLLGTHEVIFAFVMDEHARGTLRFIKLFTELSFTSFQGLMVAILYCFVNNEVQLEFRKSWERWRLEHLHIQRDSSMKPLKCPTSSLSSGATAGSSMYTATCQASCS
- test-method-notes: cell-based or functional assay
Overview of reported Relative cAMP EC50 across a group of binders:
reported-endpoint: Relative cAMP EC50 (nM)

binder: YXQGTXTSDXSILLDKKAQXAFIEYLEEGGPSSGAPPPEGTE (synthetic construct; SITE 2: note = 2-Aminoisobutyric Acid; SITE 6: note = alpha-methyl-2-fluoro-L-phenylalanine; SITE 10: note = 3-(4-Pyridyl)-L-alanine; SITE 17: note = Lysine is chemically modified through conjugation of the epsilon-amino group of the Lysine side chain with (gamma-Glu)2-CO-(CH2)1) [Example 659 (SEQ ID NO: 665)]
endpoint-result: 1.31

binder: YXQGTFTSDXXIXLDXKAQXQFIQXLIEXGPSSGAPPPSGGGE (not fully specified; N-methyl Tyr, non-natural residues, acylation, C-terminal amide; synthetic construct; SITE 1: note = N-methyl-tyrosine; SITE 2: note = 2-Aminoisobutyric Acid; SITE 10: note = 3-(4-Pyridyl)-L-alanine; SITE 11: note = alpha-methyl-L-serine; SITE 13: note = alpha-methyl-leucine; SITE 16: note = L-ornithine; SITE 17: note = Lysine is chemically modified through conju) [Example 1135]
endpoint-result: 0.746

binder: YXQGTFTSDFSXXLDKKAQXAFIEWLLEGGHSSGEPPPEGS (synthetic construct; SITE 2: note = 2-Aminoisobutyric Acid; SITE 12: note = L-ornithine; SITE 13: note = alpha-methyl-leucine; SITE 17: note = Lysine is chemically modified through conjugation of the epsilon-amino group of the Lysine side chain with (2-[2-(2-Amino-ethoxy)-ethoxy]-acetyl)-(gamma-Glu)) [Example 127]
endpoint-result: 4.8
